These entries and their values trace back to ChEMBL document CHEMBL5143518.

tested on: Leishmania infantum; assay: Leishmanicidal activity against axenic amastigote stage of Leishmania infantum MCAN/ES/89/IPZ229/1/89 assessed as reduction of proliferation of amastigotes incubated for 24 hrs by propidium iodide staining based flow cytometry; type: functional, organism-based; details: MCAN/ES/89/IPZ229/1/89, 24 h
resultType: EC50

compound	resultType	result
CCc1cc2c3cccn3c3cc(Cl)ccc3[n+]2nc1CC	EC50	0.08 µM
CCc1cc2c3ccc(Br)n3c3cc(Cl)ccc3[n+]2nc1CC	EC50	0.08 µM
CCCCCCCCCCCCCCCCOP(=O)([O-])OCC[N+](C)(C)C [MILTEFOSINE]	EC50	0.52 µM

----------
target: Trypanothione reductase (Leishmania infantum, UniProt A4HSF7); assay: Non competitive type inhibition of recombinant His-tagged Leishmania infantum TryR oxidoreductase activity expressed in Escherichia coli BL21 (DE3) assessed as inhibition constant using NADPH and varying concentration of TS2 as substrate by double reciprocal Lineweaver-Burk plot analysis
Sequence (A4HSF7 whole entry): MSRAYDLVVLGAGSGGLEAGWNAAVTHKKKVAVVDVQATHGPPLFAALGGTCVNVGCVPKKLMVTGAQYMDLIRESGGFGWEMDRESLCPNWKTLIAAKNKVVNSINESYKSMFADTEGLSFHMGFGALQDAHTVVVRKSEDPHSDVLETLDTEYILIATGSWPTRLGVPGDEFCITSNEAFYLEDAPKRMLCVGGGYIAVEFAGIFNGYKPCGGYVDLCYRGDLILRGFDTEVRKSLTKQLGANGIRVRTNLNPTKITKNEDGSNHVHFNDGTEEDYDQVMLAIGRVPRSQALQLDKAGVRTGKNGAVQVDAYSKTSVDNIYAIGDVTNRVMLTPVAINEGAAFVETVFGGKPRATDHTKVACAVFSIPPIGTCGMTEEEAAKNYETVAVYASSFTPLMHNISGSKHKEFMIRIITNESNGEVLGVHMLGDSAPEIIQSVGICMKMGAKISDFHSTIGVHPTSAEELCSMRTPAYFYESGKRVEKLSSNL
pKi: −log10 of the molar value.

molecularString	pKi
CCc1cc2c3ccc(Br)n3c3cc(Cl)ccc3[n+]2nc1CC	5.55
